- System: RS4; 11 with G101V mutation
- ASSAY_COMMENT: In vitro anti-proliferation assay (ATPlite luminescence) in BCL-2-dependent ALL cell line RS4;11 with G101V mutation
- Type: cell-based
- TEST_CONDITIONS: Homo sapiens, RS4-11, 72 h; read-out: RS411-G101V IC50
pIC50: −log10 of the molar value.

| CPD_SMILES | pIC50 |
| --- | --- |
| Cc1ccccc1[C@@H]1CN([C@H]2CCOc3c(F)cc(F)cc32)CCN1C1CC2(CCN(c3ccc(C(=O)NS(=O)(=O)c4cc5c(c([N+](=O)[O-])c4)N[C@H](C4CCOCC4)CO5)c(N4c5cc6cc[nH]c6nc5O[C@H]5COCC[C@@H]54)c3)CC2)C1 | 6.48 |
| CC(C)Oc1ccccc1[C@@H]1CN([C@@H]2COCc3cc(F)c(F)cc32)CCN1C1CC2(CCN(c3ccc(C(=O)NS(=O)(=O)c4cc5c(c([N+](=O)[O-])c4)N[C@H](C4CCOCC4)CO5)c(N4c5cc6cc[nH]c6nc5O[C@H]5COCC[C@@H]54)c3)CC2)C1 | 7.02 |
